Experiment: folding enthalpy; higher = less favourable; fluorescence melt of hairpins on a sequencing array, two-state fit
Details: sodium 0.088 M
Assign Yes to entries whose folding enthalpy meets or exceeds -20 kcal/mol; assign No to the rest.

Reference set, count: 6
>>> label("GATCCGAAGACGGATC ((((((....))))))")
"No"
>>> label("GGTTTCCGAAAGGACACC (((.(((....))).)))")
"No"
>>> label("GCAATCGAAAGATTTTGC ((((((....)))..)))")
"Yes"
>>> label("GCTCTGCGAAAGCTGTGC ((.(.((....)).).))")
"No"
>>> label("GCCAGGCGAAAGCCGCGC ((..(((....)))..))")
"Yes"
>>> label("GGTTCCGAAAGGATCACC ((((((....)))..)))")
"Yes"

Query: I'd appreciate it if you could say whether GCCATACGAAAGTAGGC (((.(((....)))))) has folding enthalpy at least equal to -20 kcal/mol.
Response: No

Query: I'd appreciate it if you could say whether GGCGGAGCGAAAGCTGCC (((..(((....)))))) has folding enthalpy at least equal to -20 kcal/mol.
Response: Yes

Query: I'd appreciate it if you could say whether CGACCCGGAAACGGATCG (((.(((....))).))) has folding enthalpy at least equal to -20 kcal/mol.
Response: No

Query: I'd appreciate it if you could say whether GCTAGGCGAAAGCGTTGC ((.(.((....)).).)) has folding enthalpy at least equal to -20 kcal/mol.
Response: No

Query: I'd appreciate it if you could say whether GCTCTCGAAAGAGGGAGC ((((((....)))..))) has folding enthalpy at least equal to -20 kcal/mol.
Response: No

Query: I'd appreciate it if you could say whether GCTTCGCCGAAAGGCAGC (((..(((....)))))) has folding enthalpy at least equal to -20 kcal/mol.
Response: Yes
